# merged literature set: pIC50 with Vasopressin V1a receptor (Homo sapiens, UniProt P37288)
In textbook form, pIC50 equals minus log to base ten of the concentration in mol/L.

# lookup: "COc1cc(-c2ccccc2C(F)(F)F)c(Cl)cc1C(=O)N1Cc2ccc(C(=O)N(C)C[C@H](O)[C@@H](O)[C@H](O)[C@H](O)CO)n2Cc2ccccc21" on Vasopressin V1a receptor (Homo sapiens, UniProt P37288), pIC50 = 5.51

# lookup: O=C(NCc1cccc(C(F)(F)F)c1)C(CCC(=O)N1CCN(CCN2CCOCC2)CC1)N1C(=O)C(N2C(=O)OCC2c2ccccc2)C1C=Cc1ccccc1 (stereo not drawn) on Vasopressin V1a receptor (Homo sapiens, UniProt P37288), pIC50 = 8.87

# lookup: "C[C@@]1(N2C(=O)OC[C@@H]2c2ccccc2)C(=O)N([C@H](CC(=O)N2CCC(N3CCCCC3)CC2)C(=O)NCc2cccc(C(F)(F)F)c2)[C@@H]1/C=C/c1ccccc1" on Vasopressin V1a receptor (Homo sapiens, UniProt P37288), pIC50 = 8.30

# lookup: COc1ccc(S(=O)(=O)N2C(=O)C(c3cc(N4CCOCC4)ccc3OC)(N3C[C@H](O)C[C@H]3C(=O)N(C)C)c3cc(Cl)ccc32)c(OC(F)(F)F)c1 (single isomer, unassigned) on Vasopressin V1a receptor (Homo sapiens, UniProt P37288), pIC50 = 6.53

# lookup: "COc1ccccc1-c1ccc(C(=O)N2Cc3ccc(C(=O)N4CCN(CCN5CCOCC5)CC4)n3Cc3ccccc32)cc1" on Vasopressin V1a receptor (Homo sapiens, UniProt P37288), pIC50 = 6.31

# lookup: "COc1ccccc1-c1ccc(C(=O)N2Cc3ccc(C(=O)N4CCN(CCN(C)C)CC4)n3Cc3ccccc32)cc1C" on Vasopressin V1a receptor (Homo sapiens, UniProt P37288), pIC50 = 6.44

# lookup: "COc1cc(-c2ccccc2C)c(Cl)cc1C(=O)N1Cc2ccc(C(=O)N3CCCN(C)CC3)n2Cc2ccccc21" on Vasopressin V1a receptor (Homo sapiens, UniProt P37288), pIC50 = 6.17

# lookup: "Cc1cc(C(=O)N2Cc3ccc(C(=O)N4CCN(C)CC4)n3Cc3ccccc32)ccc1-c1ccccc1C(F)(F)F" on Vasopressin V1a receptor (Homo sapiens, UniProt P37288), pIC50 = 5.57

# lookup: "O=C(N[C@@H]1CCCc2ccccc21)[C@H](CCC(=O)N1CCN(C2CCCCC2)CC1)N1C(=O)[C@@H](N2C(=O)OC[C@@H]2c2ccccc2)[C@H]1/C=C/c1cccc(C(F)(F)F)c1" on Vasopressin V1a receptor (Homo sapiens, UniProt P37288), pIC50 = 8.68

# lookup: "Cc1cc(C(=O)N2Cc3ccc(C(=O)N(C)C[C@H](O)[C@@H](O)[C@H](O)[C@H](O)CO)n3Cc3ccccc32)ccc1C1=CCCCC1" on Vasopressin V1a receptor (Homo sapiens, UniProt P37288), pIC50 = 6.74

# lookup: "COc1cccc(-c2ccc(C(=O)N3Cc4ccc(C(=O)N5CCC[C@H]5CN5CCCC5)n4Cc4ccccc43)cc2C)c1" on Vasopressin V1a receptor (Homo sapiens, UniProt P37288), pIC50 = 6.69

----------
# merged literature set: IC50 with Vasopressin V1a receptor (Homo sapiens, UniProt P37288)

Note to self: IC50 recorded for "COc1cccc(-c2cc(OC)c(C(=O)N3Cc4ccc(C(=O)N(C)CCCN(C)C)n4Cc4ccccc43)cc2Cl)c1" was 311 nM

Note to self: IC50 recorded for "C/C(=N\C(=O)c1ccc2n1Cc1ccccc1N(C(=O)c1ccc(C3CCCCC3)cc1)C2)N(C)C" was 87.5 nM

Note to self: IC50 recorded for COc1ccc(S(=O)(=O)N2C(=O)C(c3cc(-c4ccncc4)ccc3OC)(N3C[C@H](O)C[C@H]3C(=O)N(C)C)c3cc(Cl)ccc32)c(OC(F)(F)F)c1 (single isomer, unassigned) was 792 nM

Note to self: IC50 recorded for CCN1CCN(C(=O)CCC(C(=O)NCc2cccc(C(F)(F)F)c2)N2C(=O)C(N3C(=O)OCC3c3ccccc3)C2C(Cl)=Cc2ccccc2)CC1 (stereo not shown) was 13.6 nM

Note to self: IC50 recorded for "C=CCN1CCN(C(=O)c2ccc3n2Cc2ccccc2N(C(=O)c2ccc(-c4ccccc4C)c(C)c2)C3)CC1" was 387 nM

Note to self: IC50 recorded for "C[C@@H](NC(=O)[C@@H](CC(=O)N1CCC(N2CCCCC2)CC1)N1C(=O)[C@@H](N2C(=O)OC[C@@H]2c2ccccc2)[C@H]1/C=C/c1cccc(I)c1)c1ccccc1" was 1.8 nM

Note to self: IC50 recorded for "COc1cc(-c2ccccc2C)c(Cl)cc1C(=O)N1Cc2ccc(C(=O)N(C)CCN(C)C)n2Cc2ccccc21" was 172 nM

Note to self: IC50 recorded for COc1cccc(C(C)NC(=O)C(CCC(=O)N2CCN(C3CCCCC3)CC2)N2C(=O)C(N3C(=O)OCC3c3ccccc3)C2C=Cc2ccccc2)c1 (stereo not shown) was 2.46 nM

Note to self: IC50 recorded for "CCN1CCN(C(=O)CC[C@@H](C(=O)NC2(c3ccccc3)CCCC2)N2C(=O)[C@@H](N3C(=O)OC[C@@H]3c3ccccc3)[C@H]2/C=C/c2ccccc2)CC1" was 6.6 nM

Note to self: IC50 recorded for "Cc1cc(C(=O)N2Cc3ccc(C(=O)N4CCN(CCN(C)C)CC4)n3Cc3ccccc32)ccc1-c1ccccc1C(F)(F)F" was 1240 nM

Note to self: IC50 recorded for "O=C(c1ccc(-c2cccc3ccccc23)nc1)N1Cc2cccn2Cc2ccccc21" was 66.6 nM

Note to self: IC50 recorded for COc1ccc(S(=O)(=O)N2C(=O)C(c3ccccc3OC)(N3CCOC[C@H]3C(=O)N(C)C)c3cc(Cl)ccc32)c(OC(F)(F)F)c1 (single isomer, unassigned) was 3760 nM

Note to self: IC50 recorded for "COc1cc(C(=O)N2Cc3ccc(C(=O)N(C)Cc4ccc[n+]([O-])c4)n3Cc3ccccc32)ccc1-c1ccccc1C(F)(F)F" was 801 nM

Note to self: IC50 recorded for "COc1cc(-c2ccccc2C)c(Cl)cc1C(=O)N1Cc2ccc(C(=O)N(C)CCc3ccccn3)n2Cc2ccccc21" was 273 nM

Note to self: IC50 recorded for "COc1ccccc1-c1ccc(C(=O)N2Cc3ccc(C(=O)N4CCN(CCCN(C)C)CC4)n3Cc3ccccc32)cc1" was 373 nM

Note to self: IC50 recorded for COc1cc(C(=O)N2Cc3ccc(C(=O)N(C)CC(O)CO)n3Cc3ccccc32)ccc1-c1ccccc1C(F)(F)F (stereo not shown) was 376 nM

Note to self: IC50 recorded for "Cc1ccc(-c2ccc(C(=O)N3Cc4cccn4Cc4ccccc43)cc2)c2ccccc12" was 131 nM

Note to self: IC50 recorded for O=C(CC(C(=O)NCc1cccc(C(F)(F)F)c1)N1C(=O)C(N2C(=O)OCC2c2ccccc2)C1C=Cc1ccccc1)NC1CCN(Cc2ccccc2)C1 (stereo not shown) was 5.87 nM

Note to self: IC50 recorded for O=C(NCc1cccc(C(F)(F)F)c1)C(CCC(=O)N1CCN(CCC2CCCCC2)CC1)N1C(=O)C(N2C(=O)OCC2c2ccccc2)C1C=Cc1ccccc1 (stereo not shown) was 1.31 nM

Note to self: IC50 recorded for "COc1cc(C2=CCCCC2)c(Cl)cc1C(=O)N1Cc2ccc(C(=O)N(C)CCCN(C)C)n2Cc2ccccc21" was 977 nM

Note to self: IC50 recorded for "NC(=O)c1ccc2n1Cc1ccccc1N(C(=O)c1ccc(C3CCCCC3)cc1)C2" was 377 nM

Note to self: IC50 recorded for "COc1cc(C2=CCCCC2)c(Cl)cc1C(=O)N1Cc2ccc(C(=O)N(C)C[C@@H]3OC(=O)O[C@H]3[C@H](O)[C@H]3COC(=O)O3)n2Cc2ccccc21" was 1460 nM

Note to self: IC50 recorded for "CC(=O)c1ccc2n1Cc1ccccc1N(C(=O)c1ccc(C3CCCCC3)cc1)C2" was 258 nM

Note to self: IC50 recorded for O=C(NCc1cccc(C(F)(F)F)c1)C(CC(=O)N1CCC(N2CCCCC2)CC1)N1C(=O)C(N2C(=O)OCC2c2ccccc2)C1C=Cc1ccccc1 (stereo not shown) was 2.43 nM

Note to self: IC50 recorded for "COc1cc(-c2ccccc2C)c(Cl)cc1C(=O)N1Cc2ccc(C(=O)N3CCN(CCO)CC3)n2Cc2ccccc21" was 759 nM
